The measured values listed here are drawn from patent EP0183271B1.

- study_system: Plasmin (Homo sapiens)
- Sequence (P00747 581-810 limits assumed): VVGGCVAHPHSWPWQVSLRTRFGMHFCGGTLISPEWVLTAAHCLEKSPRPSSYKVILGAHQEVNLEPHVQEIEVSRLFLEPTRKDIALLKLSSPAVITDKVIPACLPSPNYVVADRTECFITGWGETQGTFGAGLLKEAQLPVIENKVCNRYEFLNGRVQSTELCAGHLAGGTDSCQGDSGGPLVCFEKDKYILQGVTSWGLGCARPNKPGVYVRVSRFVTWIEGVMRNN
- Sequence (P00747 97-580 partner limits assumed): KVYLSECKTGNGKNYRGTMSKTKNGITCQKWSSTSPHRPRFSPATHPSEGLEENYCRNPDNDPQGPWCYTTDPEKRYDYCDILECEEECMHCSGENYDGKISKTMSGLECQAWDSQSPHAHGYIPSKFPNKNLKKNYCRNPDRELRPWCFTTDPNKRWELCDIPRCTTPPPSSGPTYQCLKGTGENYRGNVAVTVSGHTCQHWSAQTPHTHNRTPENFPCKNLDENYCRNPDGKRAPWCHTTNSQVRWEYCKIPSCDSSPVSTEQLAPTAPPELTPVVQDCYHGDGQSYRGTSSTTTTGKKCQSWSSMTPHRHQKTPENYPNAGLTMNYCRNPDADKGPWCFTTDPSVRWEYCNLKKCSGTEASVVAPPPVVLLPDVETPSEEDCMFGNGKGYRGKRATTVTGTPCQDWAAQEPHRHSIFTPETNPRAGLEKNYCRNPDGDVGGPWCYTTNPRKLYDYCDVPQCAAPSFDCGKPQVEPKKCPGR
- method_summary: biochemical
- test_parameters: Table IV, present compounds; plasmin, substrate S-2251; read-out: I50 S-2251
- Experimental: (1) Evaluation of Antiplasmin Activity (ii) Determination of prevention activity for S-2251 decomposition An inhibitor sample is dissolved in a 0.05 M Tris-hydrochloric acid buffer solution (pH = 7.4) to make the total volume to 400 µl. […] The absorbance of p-nitroaniline formed in the reaction mixture is determined at 405 nm. Thus, the concentration I50 of the inhibitor sample, at which the absorbance is one half (i.e., 1/2) of that obtained in the absence of the inhibitor, is determined.
Counter-ions that a name gives are not always drawn.
measurement_name: IC50 (µM)

Some molecules with known IC50 results, for comparison:
Tell me measured IC50 for `Cc1ccc(S(=O)(=O)N[C@@H](CCCCN)C(=O)N2CCC(Cc3ccccc3)CC2)cc1` please.
300

Tell me measured IC50 for `NCCCC[C@H](NS(=O)(=O)c1cccc2ccccc12)C(=O)Nc1ccc([N+](=O)[O-])cc1` please.
1700

Tell me measured IC50 for `Cc1ccc(S(=O)(=O)N[C@@H](CCCCN)C(=O)Nc2cccc(C#N)c2)cc1` please.
480

Tell me measured IC50 for `Cc1ccc(S(=O)(=O)N[C@@H](CCCCN)C(=O)Nc2ccc(Oc3ccccc3)cc2)cc1` please.
780

Tell me measured IC50 for Cc1ccc(S(=O)(=O)N[C@@H](CCCCN)C(=O)Nc2ccc([N+](=O)[O-])cc2)cc1 [Compound No. 3, hydrochloride] please.
700

1 = NCCCCCC(=O)N[C@@H](CCCCN)C(=O)O
2 = Cc1ccc(S(=O)(=O)N[C@@H](CCCCN)C(=O)Nc2cc(C)nc3ccccc23)cc1
In terms of reported IC50, does 1 or 2 have the smaller number? Mark your answer with the label of the selected entry.
2
